The measured values listed here are drawn from ChEMBL document CHEMBL3137667.

details: human, serum
endpointLabel: Hepatotoxicity (acute)
API note: the answer field is a bare number with no unit suffix.

Please look up its Hepatotoxicity (acute): CN(C)CC(Oc1ccccc1)Oc1ccccc1 [MEDIFOXAMINE]
1

Please look up its Hepatotoxicity (acute): C=CCC(C(=O)NC(N)=O)C(C)C (stereo not drawn) [APRONAL]
2

Please look up its Hepatotoxicity (acute): CC(S)C(=O)NCC(=O)O (stereo not drawn) [TIOPRONIN]
10

====

assayExplanation: Highest frequency of moderate liver toxicity observed during clinical trials, expressed as a percentage. [column '% BIOL' in source]
details: human
What Hepatotoxicity (moderate) was measured for each of the following?
Expressed in %, but write only the number.

Please look up its Hepatotoxicity (moderate): Cc1oncc1C(=O)Nc1ccc(C(F)(F)F)cc1 [LEFLUNOMIDE]
56.7

Please look up its Hepatotoxicity (moderate): CN1CCN(CCCN2c3ccccc3Sc3ccc(Cl)cc32)CC1 [PROCHLORPERAZINE]
0

Please look up its Hepatotoxicity (moderate): CCCC(C)(COC(N)=O)COC(N)=O [MEPROBAMATE]
0

Please look up its Hepatotoxicity (moderate): COc1cc2nc(N3CCN(C(=O)C4COc5ccccc5O4)CC3)nc(N)c2cc1OC (stereo not drawn) [DOXAZOSIN]
2.9

Please look up its Hepatotoxicity (moderate): NC(=O)OC[C@@H]1[C@H](NC(=O)/C(=N\OCC(=O)O)c2csc(N)n2)C(=O)N1S(=O)(=O)O [CARUMONAM]
22

Please look up its Hepatotoxicity (moderate): O=C(NCCN1CCOCC1)c1ccc(Cl)cc1 [MOCLOBEMIDE]
0

Please look up its Hepatotoxicity (moderate): O=[As](O)(O)c1ccc(NCCNc2ccc([As](=O)(O)O)cc2)cc1 [DIFETARSONE]
6

Please look up its Hepatotoxicity (moderate): CCN(CC)C(=O)/C(C#N)=C/c1cc(O)c(O)c([N+](=O)[O-])c1 [ENTACAPONE]
0

Please look up its Hepatotoxicity (moderate): `O=C(Nc1cccc2c(=O)cc(-c3nnn[nH]3)oc12)c1ccc(OCCCCc2ccccc2)cc1`
2.1

Please look up its Hepatotoxicity (moderate): Cc1cccc(N2CC(CO)OC2=O)c1 (stereo not drawn) [TOLOXATONE]
0

Please look up its Hepatotoxicity (moderate): C[C@]12CC[C@H]3[C@@H](CCC4=CC(=O)CC[C@@]43C)[C@@H]1CC[C@@H]2O [TESTOSTERONE]
0

Please look up its Hepatotoxicity (moderate): CCc1c(C)[nH]c2c1C(=O)C(CN1CCOCC1)CC2 (stereo not drawn) [MOLINDONE]
0

Please look up its Hepatotoxicity (moderate): N=C(N)NCCCCCCC(=O)NC(O)C(=O)NCCCCNCCCN (stereo not drawn)
3.6

Please look up its Hepatotoxicity (moderate): CC(=O)c1ccc2c(c1)N(CCCN(C)C)c1ccccc1S2 [ACEPROMAZINE]
0

Please look up its Hepatotoxicity (moderate): O=C(CCCN1CCN(c2ccc(F)cc2)CC1)NC1c2ccccc2CSc2ccccc21 (stereo not drawn) [MONATEPIL]
4.5

Please look up its Hepatotoxicity (moderate): OCCN1CCN(CC/C=C2/c3ccccc3Sc3ccc(Cl)cc32)CC1 [ZUCLOPENTHIXOL]
19

Please look up its Hepatotoxicity (moderate): O=c1[nH]c(=O)n([C@H]2C[C@H](O)[C@@H](CO)O2)cc1I [IDOXURIDINE]
3.6

Please look up its Hepatotoxicity (moderate): O=C(CCNNC(=O)c1ccncc1)NCc1ccccc1 [NIALAMIDE]
0
